biological target: Cytochrome P450 2C9 (Homo sapiens); assay: Cytochrome panel assay with activity outcomes; conditions: recombinant CYP, pro-luciferin dealkylation, luminescence, p450-cyp2c9; series mostly up to 57.1 µM
About 4,000 (25%) of roughly 16,000 compounds were called active. About 26% were inconclusive and are not listed. The list is a sample of the results.
outcome.measure: AC50

Cc1nc2ccccc2n1CC(=O)N/N=C\C=C\c1ccccc1 | 7.08 µM (active)
Cc1ccc(N2C(=O)c3n[nH]c(C)c3C2c2ccccn2)cc1 (configuration not stated) | inactive
Cc1ccc(C)c(-n2c(CNC(=O)c3ccco3)nnc2SCC(=O)N2CCc3ccccc32)c1 | inactive
CCCCCCCCOC1OC(CO)C(O)C(O)C1NC(C)=O (configuration not stated) | inactive
CCC/C=C(\CCC)C(NS(=O)(=O)c1cccc2cccnc12)c1ccc(-c2ccccc2)cc1 (configuration not stated) | 2 µM (active)
CCOC(=O)c1c(NC(=O)CSc2nnnn2C)sc(C)c1C | 22.4 µM (active)
CC(C)NC(=O)N1CCCC2(CCN(C(=O)c3ccco3)CC2)C1 | inactive
O=C(C(Cc1ccccc1)N1C(=O)C2C3CCC(C3)C2C1=O)N1CCCCC1 (configuration not stated) | inactive
CCOC(=O)N1CCN(S(=O)(=O)c2ccc(C(=O)Nc3ccc(F)cc3F)cc2)CC1 | 15.8 µM (active)
O=C1/C(=C\c2ccccn2)SC(=S)N1Nc1ncc(C(F)(F)F)cc1Cl | 5.01 µM (active)
Cc1ccn2cc(CSc3ccccc3N)nc2c1 | inactive
CC1(C)CC(O)CC(C)(C)N1CC(O)COCCOc1ccc(Br)cc1 (configuration not stated) | inactive
Cc1nc(C(=O)Nc2ccc(Cl)cc2Cl)nn1-c1cc(OC(C)C)c(Cl)cc1Cl | 2.51 µM (active)
O=c1[nH][nH]c(C(F)(F)F)c1C=Nc1ccccc1Cl | inactive
COC(=O)N1CCC2(CC1)CN(c1ccccn1)C2 | inactive
CCCOc1ccc(C(=O)CCNc2ccc(C)c(Cl)c2)cc1 | inactive
CCOc1ccc(C(=O)CN2CCN(S(=O)(=O)c3ccc(F)cc3)CC2)cc1 | inactive
CCC/C=C(\CCC)C(NS(=O)(=O)c1cccc2cccnc12)c1ccc(C(=O)OC)cc1 (configuration not stated) | 1.58 µM (active)
CSC(N)=NCCC[C@@H](N)C(=O)O | inactive
CCOC(=O)c1c(NC(=O)c2c(C)noc2C)sc2c1CCCCC2 | inactive
Cc1cc2nc(-c3ccc(SCC(=O)N4CCc5ccccc54)nc3)[nH]c2cc1C | 3.55 µM (active)
CCOC(=O)c1c(NC(=O)Nc2ccccc2)sc(C)c1C | 3.55 µM (active)
